Assay: soluble on expression in E. coli; label from the status in PepcDB or PDB records
OBSERVATION_TYPE: soluble on expression in E. coli

Consider the following illustrative entries.
GSVDIEVQDLEEFALRPAPQGITIKCRITRDKKGMDRGMFPTYFLHLDREDGKKVFLLAGRKRKKSKTSNYLISVDPTDLSRGGDSYIGKLRSNLMGTKFTVYDNGVNPQKASSSTLESGTLRQELAAVCYETNVLGFKGPRKMSVIVPGMNMVHERVCIRPRNEHETLLARWQNKNTESIIELQNKTPVWNDDTQSYVLNFHGRVTQASVKNFQIIHGNDPDYIVMQFGRVAEDVFTMDYNYPLCALQAFAIALSSFDSKLACE soluble
MTWPARRVLYAIWQDPWMTVSRATYISRMLALVNWATWPDDADTSDTPAACVDGDCSRPNAPGERYPTFRWSDALVRELDAVLLSTEPYRFTEDHADALERQIGKPVLLVDGEMLSWYGSRAVAGARYLRSLAQGFLEHHHHHH not soluble
MGSDKIHHHHHHMRERAAVPPRAVQHSDDVAMVLRMDQPDFIQITDDAVSRDDCAAIVQRMRDSQQLQPGRIGSGVFPDLKHSRDLRISGLADWAAVENRLQQAVFEGLLRYLRQYPQALISPLMLQVTTADGTPHRLVAEDIAQMSDAALSDLARTCLRPGAINLQWYLADQGGYPYWHCELYPRDAGAETLHRHLLWTLYLNEEFEQGETEFLFQQRKARPRTGSLLIAPTAFTHTHRGNRPVGGDKFIATSWILFQSAQALYGGE not soluble
PKALIVYGSTTGNTEYTAETIARELADAGYEVDSRDAASVEAGGLFEGFDLVLLGCSTWNDDSIELQDDFIPLFDSLEETGAQGRKVACFGCGDSSYEYFCGAVDAIEEKLKNLGAEIVQDGLRIDGDPRAARDDIVGWAHDVRGAI soluble
MIRQSVFLLAAIGATVFAQNDSFDLVDANNDGKLSEKELITFMRKRGRPDGQEYFQRFDLDRNGHLDISEFVPLVYEMSRRPVDMDYEFFKKMDLNDDGIVDKAEVEKIRKDNNDRIIDGILSIADTNRDGQLTYAEFKNHLSSGAKSLSPAEEQRNQALQLLSFIDANGDNKLDQLELYTFSQKTSTNKVTKSDVQQIFAMLDKNQDGYLTENELLQLAQQFSTIGNVRSTIPKV not soluble
MDVKPDRVIDARGSYCPGPLMELIKAYKQAKVGEVISVYSTDAGTKKDAPAWIQKSGQELVGVFDRNGYYEIVMKKVK soluble
MQAPVVTETCQTNEEGEQLVLRLRAPVERPRVTWGAGVIDNEHMGRLKSNCCCIYTPPRVWDDPSTWEPEEHETEHCRGHTLPEKKQKPQGGHGSDKDEDKGNCGCDHC not soluble
MENTEKLKNSKEVIAYIAECFPNCFTLEGEAKPLKIGIFQDLADRLNDDPKVSKTQLRAALRQYTSSWRYLHGVKPGATRVDLDGNPCGELEEQHVEHAQAALAESKARVEARRKEQVKKVREEAKANKPKAKKPQQARRPQNAPKVEKKPVETRALAASELNVGNQVNVNMGKGNMAATIVEVNKEDVRVQLANGLQMVVKAEHLRA not soluble

Looking for the measured soluble on expression in E. coli of "MIIDCHGHYTTAPAAHDAFRKAQIAHHDDPQQPAPQYPHISDDALRESIEQHQLRLLRERGADMTIFSPRASTMAHHIGNEAVSQVWTQRCNDLIARVVQLYPHTFIGVCQLPQSPGVPISHSIAELERCVNELGFVGCNLNPDPSGGHWNGVPLTDRAWYPFFEKMVELDVPAMVHVSGSCNANFHATGAHYLNADTTAFMQFLEGDLFRDFPSLRFIIPHGGGAVPYHWGRFRGLADMLGKPPLATHVMRNVFFDTCVYHQPGIDLLFEVIDIDNILFGSEMVGAVRGIDPQTGHYFDDTKRYIDALTISDADKRKVFEGNARRVYPRLDAQLRARGLLEHHHHHH" , can you help?
not soluble

Looking for the measured soluble on expression in E. coli of "PATDASVLLVQLSDSHLFAEDGARLLGMDTAHSLEKVVERVAREQPRIDLILATGDVSQDGSLDSYTRFRRLSAPLDAPLRWFAGNHDEREPMQRATEGSDLLEQVVDVGNWRVVLLDSSIPGAVPGYLEEDQLELLRRAIDSAGERFLLVSFHHHPVPIGSDWMDPIGLRNPQALFDLLAPYPQVRCLLWGHIHQEFDRQRGPLRLLASPSTCVQFAPGSSDFTLDRLAPGYRWLRLHDDGRLETGISRVDDVVF" , can you help?
not soluble

Looking for the measured soluble on expression in E. coli of "MVAADIGAGLADALTAPLDHKDKGLQSLTLDQSVRKNEKLKLAAQGAEKTYGNGDSLNTGKLKNDKVSRFDFIRQIEVDGQLITLESGEFQVYKQSHSALTAFQTEQIQDSEHSGKMVAKRQFRIGDIAGEHTSFDKLPEGGRATYRGTAFGSDDAGGKLTYTIDFAAKQGNGKIEHLKSPELNVDLAAADIKPDGKRHAVISGSVLYNQAEKGSYSLGIFGGKAQEVAGSAEVKTVNGIRHIGLAAKQHHHHHH" , can you help?
soluble

Looking for the measured soluble on expression in E. coli of "MSLRFDFHTHTVFSDGELIPAELVRRARVLKHRAIAITDHADFSNYKELIEKTTIAKEELKKYWDDIIVIVGVELTHIPPKSIPKMAKKAKDLGAEIVVVHGETVVEPVEEKTNYYASISEDVDILAHPGFIDKETAENLKENDIFVEITSRRGHNITNGYVANIAREFGLKTLINTDTHAPEDLIDDEFAKKVGLGAGLTNKELENTLLHYPKELLKREGHHHHHH" , can you help?
soluble

Looking for the measured soluble on expression in E. coli of "MGSDKIHHHHHHMYVAVKGGEQAILNTHKLISETRRGDPEIAELTLPQISEQLGLAVDRVMAEGSVYDRQLAALALKQAQGDAMEAIFLLRAYRTTLPRIAVSEPIDTSRMAIRRRISATFKDLPGGQVLGPTYDYTHRLLDFALTAEGLERVRAVPAAEPLDQSVPRVVDLLDDEGVIQEENDDDQEEVFDLTRQPKSFPAGRDQRLQNLARADEGFLLGLAYSTTRGYGFNHPFVGELRLGEVTVEIVPEELGFPIVVAEVTVTECQMINSFRGSAEQPPQFTRGYGLTFGHNEGKAMSMSLVDRAMRARELGEDVRYPAQDEEFVLSHTDNVEANGLVTHYKLPHYVDFQAELQLVRQLRAEYEAARAAAQTREAAE" , can you help?
not soluble
